Molecular target: Peroxisome proliferator-activated receptor alpha (Homo sapiens) (UniProt Q07869)
Test: Agonist activity at human GAL4-fused PPARalpha ligand binding domain expressed in HepG2 cells after 20 hrs by luciferase reporter gene transactivation assay relative to WY14643
Type: cell-based
Recorded Emax values for a group of compounds are listed next.

molecule=CCCCCCCN(CCc1ccc(OCC(=O)O)cc1)c1nc2ccccc2o1 measurement_target="Peroxisome proliferator-activated receptor alpha (Homo sapiens) (UniProt Q07869)" reported_metric=Emax obs_value=87%
molecule=CCCCCCCN(CCc1ccc(O[C@@H](C)C(=O)O)cc1)c1nc2ccccc2o1 measurement_target="Peroxisome proliferator-activated receptor alpha (Homo sapiens) (UniProt Q07869)" reported_metric=Emax obs_value=78%

Request: For the compound shown here, `CCCCCCCN(CCc1ccc(O[C@H](C)C(=O)O)cc1)c1nc2ccccc2o1` , give the reported Emax.
Response: 93%

* * *

Entries and their pEC50 values follow.
Biological target: Peroxisome proliferator-activated receptor alpha (Homo sapiens, UniProt Q07869)
Sequence (Q07869 whole entry, the tested form may be a part): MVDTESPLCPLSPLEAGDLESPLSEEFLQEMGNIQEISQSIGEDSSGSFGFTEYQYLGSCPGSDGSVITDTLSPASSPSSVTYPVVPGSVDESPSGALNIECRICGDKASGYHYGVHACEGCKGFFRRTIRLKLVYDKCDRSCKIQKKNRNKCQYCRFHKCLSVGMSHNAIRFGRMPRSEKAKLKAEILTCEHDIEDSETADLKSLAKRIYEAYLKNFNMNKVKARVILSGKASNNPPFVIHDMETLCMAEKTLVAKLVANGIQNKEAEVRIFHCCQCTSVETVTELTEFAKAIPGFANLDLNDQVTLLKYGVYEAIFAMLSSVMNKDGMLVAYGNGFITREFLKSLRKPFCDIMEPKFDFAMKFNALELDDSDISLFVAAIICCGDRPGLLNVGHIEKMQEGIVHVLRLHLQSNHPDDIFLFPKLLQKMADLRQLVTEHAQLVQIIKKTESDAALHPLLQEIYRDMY
Experiment: Agonist activity at human GAL4-fused PPARalpha ligand binding domain expressed in HepG2 cells after 20 hrs by luciferase reporter gene transactivation assay
Format: cell-based
Conditions: read-out: EC50
Quick note: pEC50 values are minus log10 of concentrations in mol/L.

The following compounds have reported results that may help.
molecule=CCCCCCCN(CCc1ccc(O[C@H](Cc2ccccc2)C(=O)O)cc1)c1nc2ccccc2o1.NC1CCCCC1 reported_metric=pEC50 obs_value=5.76
molecule=CCCCCCCN(CCc1ccc(O[C@H](C)C(=O)O)cc1)c1nc2ccccc2o1 reported_metric=pEC50 obs_value=7.60

Request: Need pEC50, item `CCCCCCCN(CCc1ccc(OCC(=O)O)cc1)c1nc2ccccc2o1`
Response: 6.91

Request: Another compound to check: `CCCCCCCN(CCc1ccc(O[C@@H](C)C(=O)O)cc1)c1nc2ccccc2o1`
Response: 6.21

* * *

Target: Peroxisome proliferator-activated receptor delta (Homo sapiens)
Sequence (Q03181 whole entry, the tested form may be a part): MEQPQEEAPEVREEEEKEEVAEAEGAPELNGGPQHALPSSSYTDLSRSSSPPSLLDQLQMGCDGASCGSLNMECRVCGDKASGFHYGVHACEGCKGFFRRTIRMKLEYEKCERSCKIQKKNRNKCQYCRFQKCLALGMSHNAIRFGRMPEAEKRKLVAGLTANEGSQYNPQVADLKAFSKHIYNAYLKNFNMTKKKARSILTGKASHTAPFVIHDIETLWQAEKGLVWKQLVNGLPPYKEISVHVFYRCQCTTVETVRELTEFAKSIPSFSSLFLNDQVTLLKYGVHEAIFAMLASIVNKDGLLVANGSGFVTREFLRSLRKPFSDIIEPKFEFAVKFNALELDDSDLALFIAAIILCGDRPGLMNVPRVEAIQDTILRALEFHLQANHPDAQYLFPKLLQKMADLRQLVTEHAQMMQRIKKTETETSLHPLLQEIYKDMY
Assay: Agonist activity at human GAL4-fused PPARdelta ligand binding domain expressed in COS-1 cells after 20 hrs by luciferase reporter gene transactivation assay
Assay type: cell-based
Conditions: read-out: EC50
Recorded pEC50 by entry
# pEC50 is unitless: minus log10 of the molar concentration; print number only

Worked set:
molecule=CCCc1c(OCCCOc2ccc(OCC(=O)O)cc2)ccc(C(C)=O)c1O obs_value=7.68
molecule=CCCCCCCN(CCc1ccc(OCC(=O)O)cc1)c1nc2ccccc2o1 obs_value=6.24
molecule=CCCCCCCN(CCc1ccc(O[C@@H](C)C(=O)O)cc1)c1nc2ccccc2o1 obs_value=6.07

Turning now to a further compound:
Request: GET /values?readout=pEC50&item= `CCCCCCCN(CCc1ccc(O[C@H](C)C(=O)O)cc1)c1nc2ccccc2o1`
Response: 6.89
